# SYSTEM: FGFR3 (UniProt P22607)
# Sequence (P22607 whole entry, looked up): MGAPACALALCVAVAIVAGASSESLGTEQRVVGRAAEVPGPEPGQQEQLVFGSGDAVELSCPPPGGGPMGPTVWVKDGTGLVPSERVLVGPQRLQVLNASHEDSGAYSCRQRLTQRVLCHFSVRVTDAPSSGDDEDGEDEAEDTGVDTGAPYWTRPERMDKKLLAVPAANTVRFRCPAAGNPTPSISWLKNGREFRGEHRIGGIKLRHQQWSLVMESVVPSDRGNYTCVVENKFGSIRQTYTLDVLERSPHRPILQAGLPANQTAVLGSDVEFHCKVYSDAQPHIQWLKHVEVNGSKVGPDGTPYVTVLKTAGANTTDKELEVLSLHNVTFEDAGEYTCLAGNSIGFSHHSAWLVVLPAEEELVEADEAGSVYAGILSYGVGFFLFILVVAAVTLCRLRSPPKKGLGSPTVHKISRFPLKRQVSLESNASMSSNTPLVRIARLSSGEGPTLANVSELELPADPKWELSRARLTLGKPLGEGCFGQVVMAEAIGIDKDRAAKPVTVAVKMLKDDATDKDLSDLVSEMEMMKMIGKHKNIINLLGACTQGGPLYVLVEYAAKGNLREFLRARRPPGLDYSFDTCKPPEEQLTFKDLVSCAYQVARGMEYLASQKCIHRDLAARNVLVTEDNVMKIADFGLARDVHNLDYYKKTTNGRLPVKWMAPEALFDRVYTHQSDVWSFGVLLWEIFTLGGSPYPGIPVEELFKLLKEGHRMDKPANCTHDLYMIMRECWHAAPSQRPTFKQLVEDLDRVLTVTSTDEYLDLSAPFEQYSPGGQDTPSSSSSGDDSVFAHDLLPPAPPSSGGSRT
# PROTOCOL DESCRIPTION: phosphorylation enrichment, bacterial display (enrichment ratio); higher = better substrate or ligand; peptides without Tyr show the background;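 further: 11-residue human phosphosite peptides and single-mutation variants displayed on the E. coli surface, counted by deep sequencing, each peptide's frequency after selection divided by its frequency in the unselected input library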;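 further: frequency after pTyr selection over input frequency; kinase dosed for 20-30% of maximal phosphorylation in three min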
Hi, to clarify the labels: satisfied covers phosphorylation enrichment from 0.7 upward, not satisfied covers anything below 0.7.

See these solved cases before continuing.
PVADPYDQSFE [MAPK14_Y323] = satisfied
MKDLTYSSLCF [ALOX5_Y446_A447S] = satisfied
KDFNKYVAFIE [KDM4B_Y31_YF] = not satisfied

# ---- query sequence ----
input: Does EKKKKYMLPLD [DNM2_Y563_E560K] have a reported phosphorylation enrichment of at least 0.7?
output: not satisfied
